TESTED SYSTEM: plasma kallikrein (Homo sapiens, UniProt P03952)
Sequence (P03952 20-638): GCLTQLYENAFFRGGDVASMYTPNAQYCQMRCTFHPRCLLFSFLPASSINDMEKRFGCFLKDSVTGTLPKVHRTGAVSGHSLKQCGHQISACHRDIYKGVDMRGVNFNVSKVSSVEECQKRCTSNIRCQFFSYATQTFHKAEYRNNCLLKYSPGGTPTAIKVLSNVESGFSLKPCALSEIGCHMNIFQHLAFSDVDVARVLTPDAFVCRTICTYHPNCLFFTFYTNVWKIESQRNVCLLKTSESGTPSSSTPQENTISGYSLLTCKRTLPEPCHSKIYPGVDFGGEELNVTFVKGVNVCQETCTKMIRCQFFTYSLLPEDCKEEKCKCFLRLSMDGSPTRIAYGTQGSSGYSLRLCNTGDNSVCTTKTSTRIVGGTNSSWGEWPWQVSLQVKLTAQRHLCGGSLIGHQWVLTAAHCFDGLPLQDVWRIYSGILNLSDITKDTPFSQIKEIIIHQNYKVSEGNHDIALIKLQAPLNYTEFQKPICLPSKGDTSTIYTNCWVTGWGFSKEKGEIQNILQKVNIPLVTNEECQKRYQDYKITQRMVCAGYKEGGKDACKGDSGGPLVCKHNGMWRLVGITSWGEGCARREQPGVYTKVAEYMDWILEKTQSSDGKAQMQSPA
ASSAY EXPLANATION: Enzyme selectivity: plasma kallikrein (chromogenic substrate S-2302)
CONDITION INFO: chromogenic substrate S-2302, 37° C.
pIC50: −log10 of the molar value.
Each entry below lists one item and its recorded pIC50 value.

Previously resolved entries follow.
> print(dat)
                                   compound  reported.value
1  Cc1cc(C)c(C(=O)N[C@@H](Cc2cccc(C(F)(F)F)c2)C(=O)NCc2ccc(N)nc2C)[nH]1 [Example 277]          < 5.00
2  CCC(C)[C@@H](N)C(=O)N[C@@H](CC1CCCC2CCCCC21)C(=O)NCc1ccc(N)nc1 (stereo partly drawn) [Example 2]          < 5.00
3  CC(C)N(CC(=O)N[C@@H](Cc1ccc(F)c(F)c1)C(=O)NCc1ccc(N)nc1)C(C)C [Example 157]          < 5.00
4  CCN1CCC[C@@H]1C(=O)N[C@@H](Cc1ccc(F)c(F)c1)C(=O)NCc1ccc(N)nc1 [Example 131]          < 5.00
5  Nc1ccc(CNC(=O)[C@H](Cc2ccc(Cl)c(Cl)c2)NC(=O)[C@H]2CCCN2)cn1 [Example 4]          < 5.00

Lookup result for Nc1ccc(CNC(=O)[C@H](CC2CCCC3CCCCC32)NC(=O)c2ccc[nH]2)cn1 (stereo partly drawn) [Example 227] ; measured pIC50: < 5.00

Lookup result for Nc1ccc(CNC(=O)[C@H](Cc2cccc3ccccc23)NC(=O)c2ccc[nH]2)cn1 [Example 228] ; measured pIC50: < 5.00

Lookup result for CN1CCC[C@@H]1C(=O)N[C@@H](Cc1cccc2ccccc12)C(=O)NCc1ccc(N)nc1 [Example 92] ; measured pIC50: < 5.00

Lookup result for CCN(CC)[C@@H](C)C(=O)N[C@@H](Cc1ccc(F)c(F)c1)C(=O)NCc1ccc(N)nc1 [Example 355] ; measured pIC50: < 5.00

* * *

TESTED SYSTEM: Human KLK1 (Homo sapiens, UniProt P06870)
Sequence (P06870 25-262): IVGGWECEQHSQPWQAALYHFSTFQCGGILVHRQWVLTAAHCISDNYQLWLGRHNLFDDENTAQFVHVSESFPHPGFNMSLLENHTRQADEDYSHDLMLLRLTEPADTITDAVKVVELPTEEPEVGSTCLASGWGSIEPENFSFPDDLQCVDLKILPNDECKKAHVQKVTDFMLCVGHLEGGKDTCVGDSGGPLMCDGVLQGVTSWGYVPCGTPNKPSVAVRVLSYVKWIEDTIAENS
VALUE KIND: IC50 (nM)

Previously resolved entries follow.
> print(dat)
                                   compound  reported.value
1  CC(C)[C@@H](C(=O)N[C@@H](Cc1ccc(F)c(F)c1)C(=O)NCc1ccc(N)nc1)N(C)C(C)C            11.1
2  COc1ccc2[nH]c(C(=O)N[C@@H](Cc3cccc(C(F)(F)F)c3)C(=O)NCc3ccc(N)nc3)cc2c1            15.6
3  Cc1cc(C)c(C(=O)N[C@@H](Cc2cc(F)cc(F)c2)C(=O)NCc2ccc(N)nc2)[nH]1             6.9

(A) CC(C(=O)N[C@@H](Cc1cccc(Cl)c1)C(=O)NCc1ccc(N)nc1)N1CCCCC1 (stereo partly shown)
(B) CN[C@H](C)C(=O)N[C@@H](Cc1ccc(F)cc1)C(=O)NCc1ccc(N)nc1
Query: Could you tell me which of these two has the smaller IC50 figure? First: A Second: B Refer to your chosen item by its label in the answer.
Result: B

(a) Cc1cc[nH]c1C(=O)N[C@@H](Cc1ccc(Cl)c(Cl)c1)C(=O)NCc1ccc(N)nc1
(b) Cc1nc(N)ccc1CNC(=O)[C@H](Cc1ccc(F)c(F)c1)NC(=O)[C@H]1CCCN1C
Query: Could you kindly indicate whether a or b has the higher IC50 value? Refer to your chosen item by its label in the answer.
Result: b

* * *

// UniProt P06870 IC50 records
VALUE KIND: IC50 (nM)

Previously resolved entries follow.
> print(dat)
                                   molecule  reported.value
1  Nc1ccc(CNC(=O)[C@H](Cc2ccc(F)cc2)NC(=O)CN2CCCCC2)cn1             128
2  CN[C@H](Cc1ccccc1)C(=O)N[C@@H](Cc1cccc(Cl)c1)C(=O)NCc1ccc(N)nc1             2.7
3  COC(=O)c1ccc(C(=O)N[C@@H](Cc2cccc(C(F)(F)F)c2)C(=O)NCc2ccc(N)nc2)[nH]1             4.8
4  C[C@H](C(=O)N[C@@H](Cc1ccc(F)c(F)c1)C(=O)NCc1ccc(N)nc1)N1CCCC1             3.8
5  CC(C)N1CCC[C@@H]1C(=O)N[C@@H](Cc1cccc2ccccc12)C(=O)NCc1ccc(N)nc1             2.1

(P) Cc1cc(C(=O)O)[nH]c1C(=O)N[C@@H](Cc1cccc(C(F)(F)F)c1)C(=O)NCc1ccc(N)nc1
(Q) CCC(C)[C@@H](N)C(=O)N[C@@H](Cc1cccc(C#N)c1)C(=O)NCc1ccc(N)nc1 (stereo partly drawn)
(R) CCN(C)[C@@H](C)C(=O)N[C@@H](Cc1cccc(C(F)(F)F)c1)C(=O)NCc1ccc(N)nc1
(S) COc1ccc(C[C@H](NC(=O)c2cc3ccccc3[nH]2)C(=O)NCc2ccc(N)nc2)cc1
(T) CC(C)C[C@H](NC(=O)[C@H](C)N(C)C(C)C)C(=O)NCc1ccc(N)nc1
Query: Let's sort these by IC50, smallest first. Go ahead? Lab note: record answer as labels in requested order.
Result: R, Q, P, T, S
(R: 6.2 nM, Q: 18.1 nM, P: 30.5 nM, T: 106 nM, S: 235 nM)

* * *

TESTED SYSTEM: Human KLK1 (Homo sapiens)
Construct: purchased Callbiochem (Calbiochem)
ASSAY EXPLANATION: Determination of the IC50 for KLK1 (fluorogenic substrate H-DVal-Leu-Arg-AFC)
Format: biochemical
CONDITION INFO: 37° C.
VALUE KIND: IC50 (nM)

Previously resolved entries follow.
> print(dat)
                                   compound  reported.value
1  COc1ccc2[nH]c(C(=O)N[C@@H](Cc3ccc(F)c(F)c3)C(=O)NCc3ccc(N)nc3)cc2c1            17.8
2  Cc1cc[nH]c1C(=O)N[C@@H](Cc1ccc(F)cc1)C(=O)NCc1ccc(N)nc1            13.2
3  Nc1ccc(CNC(=O)[C@H](Cc2ccc(F)c(F)c2)NC(=O)CNCCc2ccccc2)cn1             185
4  CC(C)N(CC(=O)N[C@@H](Cc1ccc(F)c(F)c1)C(=O)NCc1ccc(N)nc1)C(C)C             123

(I) Nc1ccc(CNC(=O)[C@H](Cc2ccc(F)cc2)NC(=O)c2nc3ccccc3[nH]2)cn1
(II) Cc1cc[nH]c1C(=O)N[C@@H](CC1CCCCC1)C(=O)NCc1ccc(N)nc1
(III) C[C@@H](N)C(=O)N[C@@H](CC1CCCC2CCCCC21)C(=O)NCc1ccc(N)nc1 (some centres unmarked)
(IV) COc1ccc2[nH]c(C(=O)N[C@@H](Cc3cccc(Cl)c3)C(=O)NCc3ccc(N)nc3)cc2c1
Query: Let's sort these by IC50, smallest first. Go ahead? Lab note: record answer as labels in requested order.
Result: III, IV, I, II
(III: 5 nM, IV: 15.6 nM, I: 184 nM, II: 375 nM)

* * *

// Human KLK1 (Homo sapiens) IC50 records
VALUE KIND: IC50 (nM)

> print(dat)
                                   molecule  reported.value
1  CC(C)(C)[C@@H](N)C(=O)N[C@@H](Cc1ccc(Cl)c(Cl)c1)C(=O)NCc1ccc(N)nc1 [Example 61]             0.4

(P) Cc1cccc(C[C@H](NC(=O)[C@H]2CCCN2C(C)C)C(=O)NCc2ccc(N)nc2)c1 [Example 122]
(Q) CCC(C)[C@@H](N)C(=O)N[C@@H](Cc1cccc(F)c1)C(=O)NCc1ccc(N)nc1 (stereo partly drawn) [Example 29]
Query: Could you tell me which of these two has the smaller IC50 figure? First: P Second: Q Refer to your chosen item by its label in the answer.
Result: P

* * *

TESTED SYSTEM: trypsin
ASSAY EXPLANATION: Enzyme selectivity: trypsin (chromogenic substrate S-2222)
CONDITION INFO: human enzyme, chromogenic substrate S-2222, 37° C.
VALUE KIND: IC50

Previously resolved entries follow.
> print(dat)
                                    compound  reported.value
 1  CCC(C)[C@@H](NC)C(=O)N[C@@H](Cc1ccc(Cl)c(Cl)c1)C(=O)NCc1ccc(N)nc1 (stereo partly drawn)         > 10 µM
 2  Cc1cc(C)c(C(=O)N[C@@H](Cc2ccc(F)c(F)c2)C(=O)NCc2ccc(N)nc2)[nH]1         > 10 µM
 3  CN1CCCC[C@@H]1C(=O)N[C@@H](Cc1ccc(F)cc1)C(=O)NCc1ccc(N)nc1         > 10 µM
 4  CCC(C)[C@@H](N)C(=O)N[C@@H](Cc1ccccc1C(F)(F)F)C(=O)NCc1ccc(N)nc1 (stereo partly drawn)         > 10 µM
 5  Cc1cc(C)c(C(=O)N[C@@H](Cc2ccc(F)cc2)C(=O)NCc2ccc(N)nc2)[nH]1         > 10 µM
 6  Nc1ccc(CNC(=O)[C@H](Cc2ccc(Cl)c(Cl)c2)NC(=O)[C@H](N)Cc2ccc(Cl)cc2)cn1         > 10 µM
 7  Cc1cc(C)c(C(=O)N[C@@H](Cc2cccc(Cl)c2)C(=O)NCc2ccc(N)nc2)[nH]1         > 10 µM
 8  Nc1ccc(CNC(=O)[C@H](Cc2ccc(Cl)c(Cl)c2)NC(=O)[C@H](N)Cc2ccccc2)cn1         > 10 µM
 9  CC(C)N(C)[C@@H](C)C(=O)N(C)[C@@H](CC1CCCCC1)C(=O)NCc1ccc(N)nc1         > 10 µM
10  Nc1ccc(CNC(=O)[C@H](CC2CCCC3CCCCC32)NC(=O)c2ccc[nH]2)cn1 (stereo partly drawn)         > 10 µM

Lookup result for CCC(C)[C@@H](N)C(=O)N[C@@H](Cc1ccccc1)C(=O)NCc1ccc(N)nc1 (stereo partly drawn) ; measured IC50: > 10 µM

Lookup result for CC1CCCC(C)N1CC(=O)N[C@@H](Cc1ccc(F)c(F)c1)C(=O)NCc1ccc(N)nc1 (stereo partly drawn) ; measured IC50: > 10 µM

Lookup result for `CC(C)(C)[C@@H](N)C(=O)N[C@@H](Cc1ccc(Cl)c(Cl)c1)C(=O)NCc1ccc(N)nc1` ; measured IC50: > 10 µM

Lookup result for CCC(C)[C@@H](N)C(=O)N[C@@H](CC1CCCCC1)C(=O)NCc1ccc(N)nc1 (stereo partly drawn) ; measured IC50: > 10 µM

Lookup result for CCC(C)[C@@H](N)C(=O)N[C@@H](Cc1cccc(F)c1)C(=O)NCc1ccc(N)nc1 (stereo partly drawn) ; measured IC50: > 10 µM
